Source listed as patent US9487510B2.

assayedTarget: human KOR receptor (Homo sapiens)
assayInfo: IP-One HTRF assay, potency of KOR agonists, dose-response in transiently transfected COS-7 cells
pEC50: −log10 of the molar value.
quantityMeasured: pEC50

>  <compound>
CN(C(=O)Cc1ccc2c(c1)NC(=O)CS2(=O)=O)[C@H](CN1CC[C@H](O)C1)C1CCCCC1 [Example 125]

>  <assayedTarget>
human KOR receptor (Homo sapiens)

>  <pEC50>
≥ 7.30

$$$$
>  <compound>
CN(C(=O)Cc1ccc2sc(=O)[nH]c2c1)[C@H](CN1CC[C@H](O)C1)c1cccc(C(N)=O)c1 [Example 19]

>  <assayedTarget>
human KOR receptor (Homo sapiens)

>  <pEC50>
≥ 7.30

$$$$

Each of the following entries comes with a recorded value; kindly state pEC50 for each.
1. NC(=O)c1cccc(Cn2c(=O)oc3ccc(CC(=O)N[C@H](CN4CCCC4)c4ccccc4)cc32)c1 [Example 91]
2. CN(C(=O)Cc1ccc2c(c1)CS(=O)(=O)N2)[C@H](CN1CC[C@H](O)C1)c1ccccc1 [Example 10, 2,2,2-trifluoroacetate]
3. CCN(CC)C(=O)c1cccc([C@@H](CN2CC[C@H](O)C2)N(C)C(=O)Cc2ccc3ncc(=O)[nH]c3c2)c1 [Example 209, 2,2,2-trifluoroacetate]
4. CN(C(=O)Cc1ccc2c(c1)NC(=O)C2)[C@H](CN1CC[C@H](O)C1)c1cccc(-c2cn(C)cn2)c1 [Example 225]

1. ≥ 7.30
2. 6.00 to 7.00
3. ≥ 7.30
4. ≥ 7.30

Please list pEC50 recorded for the compound CCN(CC)C(=O)COc1cccc([C@@H](CN2CC[C@H](O)C2)N(C)C(=O)Cc2ccc3c(c2)NC(=O)C3)c1 [Example 41]
≥ 7.30

----------
assayedTarget: human KOR receptor (Homo sapiens, UniProt P41145)
Sequence (P41145 whole entry): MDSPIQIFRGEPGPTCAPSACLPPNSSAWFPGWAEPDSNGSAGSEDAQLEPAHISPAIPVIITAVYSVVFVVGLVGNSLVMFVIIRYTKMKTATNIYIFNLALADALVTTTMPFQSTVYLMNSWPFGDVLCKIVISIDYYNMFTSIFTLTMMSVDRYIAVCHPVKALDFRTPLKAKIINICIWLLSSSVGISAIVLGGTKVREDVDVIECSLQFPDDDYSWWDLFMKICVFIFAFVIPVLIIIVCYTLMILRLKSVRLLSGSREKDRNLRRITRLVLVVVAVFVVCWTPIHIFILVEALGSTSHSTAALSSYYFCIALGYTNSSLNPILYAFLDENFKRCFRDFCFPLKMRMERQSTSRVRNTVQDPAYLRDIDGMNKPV
assayInfo: IP-One HTRF assay, potency of KOR agonists, dose-response in transiently transfected COS-7 cells
Hi there, I'd appreciate the recorded EC50 for every entry that follows.

Solved entries:
>  <smilesString>
CN(C(=O)Cc1ccc2ncc(=O)[nH]c2c1)[C@H](CN1CC[C@H](O)C1)c1cccc(C(N)=O)c1

>  <EC50>
≤ 50 nM

$$$$
>  <smilesString>
CN(C(=O)Cc1ccc2c(c1)NC(=O)CS2(=O)=O)[C@H](CN1CC[C@H](O)C1)c1ccc(F)c(OC(F)(F)F)c1

>  <EC50>
≤ 50 nM

$$$$
>  <smilesString>
CN(C)C(=O)c1cccc([C@@H](CN2CC[C@H](O)C2)N(C)C(=O)Cc2ccc3ncc(=O)[nH]c3c2)c1

>  <EC50>
≤ 50 nM

$$$$
>  <smilesString>
CN(C(=O)Cc1ccc2sc(=O)[nH]c2c1)[C@H](CN1CC[C@H](O)C1)c1cccc(OCC(=O)O)c1

>  <EC50>
≤ 50 nM

$$$$
>  <smilesString>
N#Cc1ccc(Cn2c(=O)oc3ccc(CC(=O)N[C@H](CN4CC[C@H](O)C4)c4ccccc4)cc32)cc1

>  <EC50>
≤ 50 nM

$$$$

# evaluate next
Please list EC50 recorded for the compound "CN(C(=O)Cc1ccc2c(c1)NC(=O)C2)[C@H](CN1CC[C@H](O)C1)c1cccc(OCC(=O)NS(C)(=O)=O)c1"
51 to 100 nM

----------
assayedTarget: human KOR receptor (Homo sapiens, UniProt P41145)
assayInfo: IP-One HTRF assay, potency of KOR agonists, dose-response in transiently transfected COS-7 cells
Structures can show the parent of a compound that is named as a salt.
Hi there, I'd appreciate the recorded EC50 for every entry that follows.

Solved entries:
>  <compound>
O=C1COc2ccc(CC(=O)N[C@H](CN3CCCC3)c3ccccc3)cc2N1

>  <EC50>
≤ 50 nM

$$$$
>  <compound>
CN(C(=O)Cc1ccc2c(c1)NC(=O)C2)C(CN1CC[C@H](O)C1)c1cccc(OCC(=O)O)c1 (stereo partly shown) [Example 95, acetic acid hydrochloride]

>  <EC50>
≤ 50 nM

$$$$
>  <compound>
CN(C(=O)Cc1ccc2c(c1)NC(=O)CS2(=O)=O)C(CN1CC[C@H](O)C1)C1CCOCC1 (stereo partly shown)

>  <EC50>
101 to 1000 nM

$$$$

# evaluate next
Please list EC50 recorded for the compound "CN(C(=O)Cc1ccc2c(c1)NC(=O)C2)[C@H](CN1CC[C@H](O)C1)c1cccc(C(=O)NCC(F)(F)F)c1"
≤ 50 nM
